test system: NEK9; conditions: concentration: 1 μM,replicates: in singlicate; n = 1;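 also: KINOMEscan kinase panel screen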
Listed compounds paired with reported %Inh
Value expressed in %; do not type the unit.

> print(dat)
                                   compound  system.under.test  value.units  recorded.measurement
1  N#Cc1cccc(C(=O)NC2CCN(c3ccnc(Nc4ccc(F)cc4)n3)C2)c1 (centres unmarked)               NEK9            %                     0
2  Cl.Cl.NC[C@H](CC1CCCCC1)NC(=O)c1ccc(-c2ccnc3[nH]ccc23)s1               NEK9            %                    17
3  O=c1[nH]cc(-c2ccc(O)cc2)c2sc(-c3ccncc3)cc12               NEK9            %                    18

Request: GET /values?readout=%Inh&item= `CNC(=O)c1ccccc1Nc1nc(Nc2cccc(CS(C)(=O)=O)c2)ncc1C.O=CO`
Response: 78

Request: GET /values?readout=%Inh&item= COc1cccc(CNC(=O)NC2CCN(c3ccnc(Nc4cc(OC)c(OC)c(OC)c4)n3)C2)c1 (centres unmarked)
Response: 31

Request: GET /values?readout=%Inh&item= `Cn1ccc2ncnc(Oc3ccc(NC(=O)Nc4cncc(C(F)(F)F)c4)c(Cl)c3)c21`
Response: 0

Request: GET /values?readout=%Inh&item= `C[C@@H](Oc1cc(-n2cnc3cc(-c4ccncc4)ccc32)sc1C(N)=O)c1ccccc1Cl`
Response: 62

Request: GET /values?readout=%Inh&item= `O=C(Nc1cccc(C(F)(F)F)c1)c1cccc(Oc2ccc3nccn3n2)c1`
Response: 0
